# pIC50 values compiled below
# assayed-target: Dipeptidyl peptidase 4 (Homo sapiens)
# Sequence (P27487 whole entry): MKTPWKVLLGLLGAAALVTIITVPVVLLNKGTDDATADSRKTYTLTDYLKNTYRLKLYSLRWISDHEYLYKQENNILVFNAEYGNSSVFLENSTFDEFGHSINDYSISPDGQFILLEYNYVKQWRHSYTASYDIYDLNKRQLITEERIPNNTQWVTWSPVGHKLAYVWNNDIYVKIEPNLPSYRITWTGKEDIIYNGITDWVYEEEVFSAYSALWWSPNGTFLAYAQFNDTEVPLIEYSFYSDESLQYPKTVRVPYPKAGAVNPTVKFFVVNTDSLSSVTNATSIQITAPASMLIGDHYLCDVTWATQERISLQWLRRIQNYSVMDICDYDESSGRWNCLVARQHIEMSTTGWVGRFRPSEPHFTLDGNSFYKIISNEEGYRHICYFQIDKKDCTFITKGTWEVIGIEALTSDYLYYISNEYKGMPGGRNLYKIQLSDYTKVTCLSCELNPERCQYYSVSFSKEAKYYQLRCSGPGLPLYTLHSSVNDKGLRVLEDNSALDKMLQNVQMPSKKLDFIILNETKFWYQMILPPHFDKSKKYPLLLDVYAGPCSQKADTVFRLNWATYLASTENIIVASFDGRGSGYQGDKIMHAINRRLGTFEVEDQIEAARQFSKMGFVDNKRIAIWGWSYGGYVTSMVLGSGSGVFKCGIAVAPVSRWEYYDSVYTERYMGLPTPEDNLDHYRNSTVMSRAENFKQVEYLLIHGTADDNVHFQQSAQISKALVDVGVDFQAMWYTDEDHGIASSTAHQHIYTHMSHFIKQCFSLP
# test-details: Inhibition of human seminal plasma DPP4 assessed as pNA release from Gly-Pro-p-nitroanilide substrate pre-incubated with enzyme for 15 min prior to substrate addition by fluorescence technique
pIC50: −log10 of the molar value.

N[C@@H](CCC(=O)N1CCN(Cc2ccc(F)cc2)CC1)C(=O)N1Cc2ccccc2C1 < 4.00
O=C(CCC(=O)N1Cc2ccccc2C1)N1CCN(C(c2ccc(F)cc2)c2ccc(F)cc2)CC1 < 4.00
N[C@@H](CC(=O)N1CCN(C(=O)C(c2ccc(Cl)cc2)c2ccc(Cl)cc2)CC1)C(=O)N1Cc2ccccc2C1 < 4.00

The measured pIC50 that `C[C@H]1CN(C(=O)C[C@H](N)C(=O)N2Cc3ccccc3C2)CCN1C(c1ccc(F)cc1)c1ccc(F)cc1` showed for Dipeptidyl peptidase 4 (Homo sapiens) is < 4.00

The measured pIC50 that `N[C@@H](CC(=O)N1CCCN(C(c2ccc(F)cc2)c2ccc(F)cc2)CC1)C(=O)N1Cc2ccccc2C1` showed for Dipeptidyl peptidase 4 (Homo sapiens) is < 4.00
